pKi: −log10 of the molar value.
Assay read-out pKi on D(2) dopamine receptor (Rattus norvegicus); records merged from the literature.
Sequence (P61169 whole entry): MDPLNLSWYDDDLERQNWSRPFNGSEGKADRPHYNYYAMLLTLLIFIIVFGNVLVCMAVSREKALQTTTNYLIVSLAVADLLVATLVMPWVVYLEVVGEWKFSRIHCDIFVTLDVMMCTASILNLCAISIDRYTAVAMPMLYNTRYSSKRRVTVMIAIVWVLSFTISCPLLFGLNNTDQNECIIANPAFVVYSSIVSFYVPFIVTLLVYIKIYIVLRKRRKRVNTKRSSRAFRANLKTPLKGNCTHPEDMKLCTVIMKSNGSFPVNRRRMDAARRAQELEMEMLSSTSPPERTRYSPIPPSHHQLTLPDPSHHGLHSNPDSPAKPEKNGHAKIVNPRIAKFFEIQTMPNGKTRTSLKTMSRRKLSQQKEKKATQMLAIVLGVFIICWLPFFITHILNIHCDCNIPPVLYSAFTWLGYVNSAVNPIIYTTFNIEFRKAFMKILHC

Bench note, D(2) dopamine receptor (Rattus norvegicus): entry `Cc1cc(=O)oc2cc(OCCCCN3CCC(c4noc5cc(F)ccc45)CC3)c(Cl)cc12` , its pKi = < 5.00

Case `CN1CCc2ccc(OCCCN3CCN(c4ccccn4)CC3)cc2C1=O` , D(2) dopamine receptor (Rattus norvegicus), pKi recorded as < 5.00

Assay D(2) dopamine receptor (Rattus norvegicus), sample `COc1ccccc1N1CCN(CCCCOc2ccc3c(c2)C(=O)N(C)CC3)CC1` , pKi read: < 5.00

Field pKi (system: D(2) dopamine receptor (Rattus norvegicus)) for entry `CN1CCc2ccc(OCCCN3CCN(c4ccc5ccccc5n4)CC3)cc2C1=O` = < 5.00

Summary: `O=C(CCN1CCN(c2ccc(Cl)cc2)CC1)c1cc2c3c(c1)CCC(=O)N3CCC2` , D(2) dopamine receptor (Rattus norvegicus), pKi = < 5.70
